// pEC50 lookup, one value per entry
- measurement target: UniProt P19491
- Sequence (P19491 whole entry, looked up): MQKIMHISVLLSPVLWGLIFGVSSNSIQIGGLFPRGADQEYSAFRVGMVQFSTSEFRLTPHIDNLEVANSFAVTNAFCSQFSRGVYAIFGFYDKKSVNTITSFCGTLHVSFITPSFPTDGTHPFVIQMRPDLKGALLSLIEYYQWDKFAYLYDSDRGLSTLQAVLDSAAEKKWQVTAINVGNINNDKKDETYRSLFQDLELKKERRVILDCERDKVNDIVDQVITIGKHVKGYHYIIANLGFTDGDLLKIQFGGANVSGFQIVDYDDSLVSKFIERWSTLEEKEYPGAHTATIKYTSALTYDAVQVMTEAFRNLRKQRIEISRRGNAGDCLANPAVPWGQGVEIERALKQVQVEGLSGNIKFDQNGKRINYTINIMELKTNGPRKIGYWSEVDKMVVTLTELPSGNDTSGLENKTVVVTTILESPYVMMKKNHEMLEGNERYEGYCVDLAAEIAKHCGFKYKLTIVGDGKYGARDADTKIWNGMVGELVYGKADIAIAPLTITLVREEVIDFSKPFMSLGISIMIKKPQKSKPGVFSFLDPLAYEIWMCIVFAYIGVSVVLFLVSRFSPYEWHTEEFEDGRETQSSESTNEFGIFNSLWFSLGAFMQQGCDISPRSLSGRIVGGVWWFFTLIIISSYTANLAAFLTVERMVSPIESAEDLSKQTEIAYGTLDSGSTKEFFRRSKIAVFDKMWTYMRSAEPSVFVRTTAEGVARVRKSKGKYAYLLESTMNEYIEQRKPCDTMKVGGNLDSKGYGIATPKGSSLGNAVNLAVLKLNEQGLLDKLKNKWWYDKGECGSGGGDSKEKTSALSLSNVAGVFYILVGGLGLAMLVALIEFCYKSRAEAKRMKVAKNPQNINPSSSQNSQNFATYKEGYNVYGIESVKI
- assay method text: Agonist activity at GluR2Q expressed in HEK293 cells by Fluo-4/Ca2+ assay
In simple prose, pEC50 is minus the logarithm base ten of a concentration in moles per litre.

These solved cases illustrate the format of a correct answer.
CCCn1nnc(-c2onc(O)c2CC(N)C(=O)O)n1 (racemic)    3.08
CC(C)n1nnc(-c2onc(O)c2CC(N)C(=O)O)n1 (racemic)    3.00

Next item in the queue.
input: Any idea what pEC50 was measured for CCn1nnc(-c2o[nH]c(=O)c2CC(N)C(=O)O)n1 (racemic) ?
output: 4.28

* * *

- measurement target: Glutamate receptor 4 (Rattus norvegicus) (UniProt P19493)
- Sequence (P19493 whole entry, looked up): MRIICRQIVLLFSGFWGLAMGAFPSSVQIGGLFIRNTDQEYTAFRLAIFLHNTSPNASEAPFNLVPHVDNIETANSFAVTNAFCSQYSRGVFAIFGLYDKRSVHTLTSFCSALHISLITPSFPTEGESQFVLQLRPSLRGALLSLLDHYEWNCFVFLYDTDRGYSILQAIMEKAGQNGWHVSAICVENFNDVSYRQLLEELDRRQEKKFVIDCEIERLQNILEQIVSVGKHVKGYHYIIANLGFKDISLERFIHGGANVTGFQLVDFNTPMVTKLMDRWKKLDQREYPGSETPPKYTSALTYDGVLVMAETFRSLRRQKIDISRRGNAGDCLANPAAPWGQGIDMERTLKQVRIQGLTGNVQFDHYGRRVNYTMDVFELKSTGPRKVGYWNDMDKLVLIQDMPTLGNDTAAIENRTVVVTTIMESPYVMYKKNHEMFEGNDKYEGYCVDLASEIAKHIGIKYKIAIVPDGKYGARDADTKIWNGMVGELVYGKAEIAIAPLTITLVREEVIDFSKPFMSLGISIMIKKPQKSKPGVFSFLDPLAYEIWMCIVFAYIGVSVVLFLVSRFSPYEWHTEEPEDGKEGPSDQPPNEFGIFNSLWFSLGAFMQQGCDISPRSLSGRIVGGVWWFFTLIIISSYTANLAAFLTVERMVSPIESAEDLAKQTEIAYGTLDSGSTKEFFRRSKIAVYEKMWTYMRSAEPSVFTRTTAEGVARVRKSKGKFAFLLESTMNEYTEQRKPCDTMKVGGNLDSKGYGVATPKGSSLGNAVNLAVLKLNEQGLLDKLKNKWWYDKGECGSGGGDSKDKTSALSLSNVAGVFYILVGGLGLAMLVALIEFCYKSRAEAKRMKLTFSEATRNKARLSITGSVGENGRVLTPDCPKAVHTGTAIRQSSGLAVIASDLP
- assay method text: Agonist activity at GluR4 expressed in HEK293 cells relative to S-Glutamate by Fluo-4/Ca2+ assay
parameter: RUmax (%)
Numeric answer only, unit % assumed.

Cn1nnnc1-c1onc(O)c1CC(N)C(=O)O (racemic)    79
CCn1nnc(-c2onc(O)c2CC(N)C(=O)O)n1 (racemic)    94
CCCn1nnc(-c2onc(O)c2CC(N)C(=O)O)n1 (racemic)    97

input: Which RUmax is listed for CC(C)n1nnc(-c2onc(O)c2CC(N)C(=O)O)n1 (racemic) ?
output: 83

* * *

- assay method text: Agonist activity at GluR1 M686V/I687 mutant expressed in HEK293 cells by Fluo-4/Ca2+ assay
- Type: functional, cell-based
- condition details: Homo sapiens, read-out: EC50
# reported EC50; entries follow
Give a bare numeral; the unit µM is implied.

input: Quick check: EC50 of NC(Cc1c(O)noc1-c1nnn(Cc2ccccc2)n1)C(=O)O (racemic) ?
output: 500

input: Name the recorded EC50 for "N[C@@H](CCC(=O)O)C(=O)O" .
output: 76

* * *

- measurement target: Glutamate receptor 3 (Rattus norvegicus)
- assay method text: Agonist activity at GluR3 expressed in HEK293 cells by Fluo-4/Ca2+ assay
- condition details: read-out: EC50
The following compounds are shown together with reported EC50 values.
I only need the number, in µM, no unit after it.

CC(C)n1nnc(-c2onc(O)c2CC(N)C(=O)O)n1 (racemic)    700
CCCn1nnc(-c2onc(O)c2CC(N)C(=O)O)n1 (racemic)    450

Then there is this compound:
input: Consider the compound shown here: CCn1nnc(-c2o[nH]c(=O)c2CC(N)C(=O)O)n1 (racemic) What is its recorded EC50?
output: 18

* * *

- measurement target: Glutamate receptor 4 (Rattus norvegicus)
- assay method text: Agonist activity at GluR4 expressed in HEK293 cells by Fluo-4/Ca2+ assay
- condition details: read-out: EC50
Consider the following compounds and their measured pEC50 readings.
As a rule, pEC50 stands for the negative log10 of the concentration, concentration in M.

input: Query: pEC50; subject: CCn1nnc(-c2o[nH]c(=O)c2CC(N)C(=O)O)n1 (racemic)
output: 5.40

input: State the recorded pEC50 for this entry: Cn1nnnc1-c1onc(O)c1CC(N)C(=O)O (racemic)
output: 2.52

input: Look at this compound and give its reported pEC50. CC(C)n1nnc(-c2onc(O)c2CC(N)C(=O)O)n1 (racemic)
output: 3.80

input: Form field: reported pEC50 of CCCn1nnc(-c2onc(O)c2CC(N)C(=O)O)n1 (racemic)
output: 4.10

* * *

- measurement target: Glutamate receptor 3 (Rattus norvegicus) (UniProt P19492)
- Sequence (P19492 whole entry, looked up): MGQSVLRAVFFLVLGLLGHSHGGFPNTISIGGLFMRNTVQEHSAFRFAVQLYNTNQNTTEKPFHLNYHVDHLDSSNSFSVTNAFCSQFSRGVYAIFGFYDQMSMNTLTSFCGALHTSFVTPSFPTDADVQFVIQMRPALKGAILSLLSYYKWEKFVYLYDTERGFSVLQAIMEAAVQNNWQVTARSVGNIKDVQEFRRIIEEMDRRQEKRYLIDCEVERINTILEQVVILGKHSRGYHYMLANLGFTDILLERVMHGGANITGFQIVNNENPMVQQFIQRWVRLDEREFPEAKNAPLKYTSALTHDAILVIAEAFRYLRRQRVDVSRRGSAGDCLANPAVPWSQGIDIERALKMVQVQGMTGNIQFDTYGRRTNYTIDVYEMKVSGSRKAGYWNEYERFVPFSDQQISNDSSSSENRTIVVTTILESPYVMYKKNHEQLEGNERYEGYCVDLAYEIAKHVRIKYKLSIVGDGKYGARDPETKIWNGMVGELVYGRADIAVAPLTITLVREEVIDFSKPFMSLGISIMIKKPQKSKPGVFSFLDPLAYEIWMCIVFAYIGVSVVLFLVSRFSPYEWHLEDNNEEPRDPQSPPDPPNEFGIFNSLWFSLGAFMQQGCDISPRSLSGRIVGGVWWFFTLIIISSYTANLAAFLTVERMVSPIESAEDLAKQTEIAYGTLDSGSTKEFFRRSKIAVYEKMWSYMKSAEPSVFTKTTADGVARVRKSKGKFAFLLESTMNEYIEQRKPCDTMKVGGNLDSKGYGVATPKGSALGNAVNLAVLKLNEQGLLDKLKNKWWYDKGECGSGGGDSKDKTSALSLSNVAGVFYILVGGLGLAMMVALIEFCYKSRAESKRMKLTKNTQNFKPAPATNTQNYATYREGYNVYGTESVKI
- assay method text: Agonist activity at GluR3 expressed in HEK293 cells relative to S-Glutamate by Fluo-4/Ca2+ assay
parameter: RUmax (%)
Field format: number, assumed %, no unit text.

Cn1nnnc1-c1onc(O)c1CC(N)C(=O)O (racemic)    22

input: Dear colleague, I am looking for the recorded RUmax of the following compound: CC(C)n1nnc(-c2onc(O)c2CC(N)C(=O)O)n1 (racemic)
output: 73

input: Item CCCn1nnc(-c2onc(O)c2CC(N)C(=O)O)n1 (racemic) has what recorded RUmax?
output: 85

input: I have this compound here, CCn1nnc(-c2onc(O)c2CC(N)C(=O)O)n1 (racemic) , and I need its recorded RUmax.
output: 95
